- measurementProtocol: Plasma pharmacokinetics, non-compartmental analysis
- Format: in vivo, human
- cond: human, plasma, iv, 20 mg
property: clearance (mL/min)
Give the value in mL/min but do not write mL/min after it.

Asked: Let me know recorded clearance for Cc1ccc(C(=O)N(CCCN)C(c2nc3snc(C)c3c(=O)n2Cc2ccccc2)C(C)C)cc1 (stereo not shown) [AZD4877] , thanks.
Given back: 233

====

- measurementProtocol: Plasma pharmacokinetics, non-compartmental analysis
- Format: in vivo, human
- cond: human, plasma, iv, 25 mg
property: AUC(0-t) (ng·h/mL)
Quick reminder: number only, in ng·h/mL, skip the unit.

Asked: Name the recorded AUC(0-t) of the item Cc1ccc(C(=O)N(CCCN)C(c2nc3snc(C)c3c(=O)n2Cc2ccccc2)C(C)C)cc1 (stereo not shown) in your answer.
Given back: 838

====

- measurementProtocol: Plasma pharmacokinetics, non-compartmental analysis
- Assay type: in vivo, human
- cond: human, plasma, iv, 10 mg
property: Vd (L)
Supply the numeric figure in L, leaving out any unit text.

Asked: State its Vd for this compound: Cc1ccc(C(=O)N(CCCN)C(c2nc3snc(C)c3c(=O)n2Cc2ccccc2)C(C)C)cc1 (stereo not shown) [AZD4877]
Given back: 766

====

- measurementProtocol: Plasma pharmacokinetics, non-compartmental analysis
- Format: in vivo, human
- cond: human, plasma, iv, 10 mg
property: concentration at 24 h (ng/mL)
API: value field is a number in ng/mL; no unit string.

Asked: Respond only with concentration at 24 h recorded for Cc1ccc(C(=O)N(CCCN)C(c2nc3snc(C)c3c(=O)n2Cc2ccccc2)C(C)C)cc1 (stereo not shown)
Given back: 4.9

====

- measurementProtocol: Plasma pharmacokinetics, non-compartmental analysis
- Format: in vivo, human
- cond: human, plasma, iv, 10 mg
property: clearance

Asked: Please give the documented clearance of Cc1ccc(C(=O)N(CCCN)C(c2nc3snc(C)c3c(=O)n2Cc2ccccc2)C(C)C)cc1 (stereo not shown)
Given back: 373 mL/min

====

- measurementProtocol: Plasma pharmacokinetics, non-compartmental analysis
- Type: in vivo, human
- cond: human, plasma, iv, 20 mg
property: AUC(0-inf) (ng·h/mL)
Report the figure in ng·h/mL without appending any unit label.

Asked: Give reported AUC(0-inf) value for Cc1ccc(C(=O)N(CCCN)C(c2nc3snc(C)c3c(=O)n2Cc2ccccc2)C(C)C)cc1 (stereo not shown) [AZD4877]
Given back: 1430

====

- measurementProtocol: Plasma pharmacokinetics, non-compartmental analysis
- Format: in vivo, human
- cond: human, plasma, iv, 25 mg
property: AUC(0-inf) (ng·h/mL)
Hi! Could you send only the number? It should be in ng·h/mL, unit omitted.

Asked: Report AUC(0-inf) for Cc1ccc(C(=O)N(CCCN)C(c2nc3snc(C)c3c(=O)n2Cc2ccccc2)C(C)C)cc1 (stereo not shown)
Given back: 1280

====

- measurementProtocol: Plasma pharmacokinetics, non-compartmental analysis
- Type: in vivo, human
- cond: human, plasma, iv, 15 mg
property: AUC(0-inf) (ng·h/mL)
State the answer as a number, implicitly in ng·h/mL.

Asked: Give the value of AUC(0-inf) reported for the following: Cc1ccc(C(=O)N(CCCN)C(c2nc3snc(C)c3c(=O)n2Cc2ccccc2)C(C)C)cc1 (stereo not shown)
Given back: 671

====

- measurementProtocol: Plasma pharmacokinetics, non-compartmental analysis
- Assay type: in vivo, human
- cond: human, plasma, iv, 15 mg
property: AUC(0-t) (ng·h/mL)
Answer with a number only, understood to be in ng·h/mL.

Asked: # return recorded AUC(0-t) for entry Cc1ccc(C(=O)N(CCCN)C(c2nc3snc(C)c3c(=O)n2Cc2ccccc2)C(C)C)cc1 (stereo not shown)
Given back: 424

From: paper PMC3130141
